# target_of_assay: cyclooxygenase (Rattus norvegicus, UniProt Q63921)
# Construct: host or cells: RBL-1 (rat basophilic leukemia)
# Sequence (Q63921 27-602): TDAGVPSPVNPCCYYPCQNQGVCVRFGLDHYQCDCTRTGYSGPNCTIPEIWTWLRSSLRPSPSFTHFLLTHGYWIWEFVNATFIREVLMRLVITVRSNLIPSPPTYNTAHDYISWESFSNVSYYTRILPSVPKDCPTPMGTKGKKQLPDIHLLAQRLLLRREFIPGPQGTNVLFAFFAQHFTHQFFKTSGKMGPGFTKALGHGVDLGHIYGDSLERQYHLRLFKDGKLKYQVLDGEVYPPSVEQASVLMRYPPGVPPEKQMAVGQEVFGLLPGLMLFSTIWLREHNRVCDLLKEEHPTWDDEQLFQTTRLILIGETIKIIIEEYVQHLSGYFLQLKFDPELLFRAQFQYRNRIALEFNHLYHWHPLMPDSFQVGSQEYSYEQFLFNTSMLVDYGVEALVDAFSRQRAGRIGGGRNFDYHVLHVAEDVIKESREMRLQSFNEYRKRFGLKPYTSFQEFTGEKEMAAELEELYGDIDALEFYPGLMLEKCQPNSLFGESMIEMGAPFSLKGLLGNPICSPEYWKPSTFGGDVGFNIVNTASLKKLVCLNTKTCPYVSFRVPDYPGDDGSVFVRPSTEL
# assay_protocol: ARBC RBL-1 whole cell cyclooxygenase assay (PGF2α by RIA)
# Format: cell-based
# test_parameters: RBL-1 intact cells, 5 μM A23187, PGF2α
attribute_measured: IC50 (µM)

compound="Cc1cc(C=Cc2cc(Br)c(O)c(Br)c2)n[nH]1 [Example 58]" target_of_assay="cyclooxygenase (Rattus norvegicus, UniProt Q63921)" measured_result=14.5

1 = Cc1cc(C=Cc2cc(Br)c(O)c(Br)c2)no1 [Example 54B]
2 = COC(=O)C(=Cc1cc(C(C)(C)C)c(O)c(C(C)(C)C)c1)c1cc(C)no1 [Example 46]
Input line: Identify the entry with the larger IC50. Options: 1 and 2 Identify your pick by its label.
Output line: 1
(1: 4.2 µM, 2: 2 µM)
